# METHOD SUMMARY: inhibitors of CD8+ T cell-vesicle binding, pilot screen, LFA-1/ICAM-1 modulator project, MLPCN validation set, flow cytometry (AID 2523)
# RUN CONDITIONS: 2C mouse CD8+ T cells, at 7 µM, stronger effect = lower value; measured here: CD8+/vesicle+ event percentage
Items are presented alongside their recorded double positive events.
Express the result in % but write the number alone.

Would you please look over these solved cases?
CC[N+](C)(C)Cc1ccccc1Br; 63.8
Cc1cc(OC(C(=O)O)c2ccccc2)c2c(C)c(Cc3ccccc3)c(=O)oc2c1 (stereo unspecified); 54.5
c1ccc2c(CC3=NCCN3)cccc2c1; 49.4
O=C(CCCN1CC=C(n2c(=O)[nH]c3ccccc32)CC1)c1ccc(F)cc1; 63

Exam item: Quick check: double positive events of C/C=C/Cn1c(SC)nc2c1c(=O)[nH]c(=O)n2C ?
Marked response: 59

Exam item: // same read-out, input: COc1ccc2nc(NC(=O)Nc3ccccc3)sc2c1
Marked response: 50.6

###

# METHOD SUMMARY: modulators of CIT2-GFP expression in yeast, confirmation, S. cerevisiae, GFP fusion, cherry picks, mother/daughter gates (AID 2274)
# RUN CONDITIONS: S. cerevisiae CIT2-GFP strain, flow cytometry, 3 h; measured here: mother cell gate; at 10 µM; stronger effect = higher value
Reported values of GFP response, % of DMSO for individual entries
Give the number; % is assumed, so skip it.

Solved entries:
CCCCOc1cccc(/C=C(\C#N)C(=O)NC2CC2)c1; 96.1
CC1=C/C(=N\OS(=O)(=O)c2ccccc2)C(C)=CC1=O; 88.2
O=C(c1cccc(COCC(F)(F)C(F)F)c1)N1CCN(c2ccccc2)CC1; 98

Exam item: What GFP response, % of DMSO value was documented for this molecule, Cc1ccc(C(=O)Nc2nnc(CC(=O)N/N=C/c3ccc(O)c(O)c3)s2)cc1 ?
Marked response: 104

Exam item: Similarly, O=C(NNC(=S)NC(=O)c1cn(-c2ccccc2)nc1-c1ccccc1)c1ccncc1 ?
Marked response: 96

###

# TARGET OR SYSTEM: Integrin beta-1 (Homo sapiens) + Integrin alpha-4 (Homo sapiens) (UniProt P13612+P05556)
# Sequence (P05556 whole entry, looked up): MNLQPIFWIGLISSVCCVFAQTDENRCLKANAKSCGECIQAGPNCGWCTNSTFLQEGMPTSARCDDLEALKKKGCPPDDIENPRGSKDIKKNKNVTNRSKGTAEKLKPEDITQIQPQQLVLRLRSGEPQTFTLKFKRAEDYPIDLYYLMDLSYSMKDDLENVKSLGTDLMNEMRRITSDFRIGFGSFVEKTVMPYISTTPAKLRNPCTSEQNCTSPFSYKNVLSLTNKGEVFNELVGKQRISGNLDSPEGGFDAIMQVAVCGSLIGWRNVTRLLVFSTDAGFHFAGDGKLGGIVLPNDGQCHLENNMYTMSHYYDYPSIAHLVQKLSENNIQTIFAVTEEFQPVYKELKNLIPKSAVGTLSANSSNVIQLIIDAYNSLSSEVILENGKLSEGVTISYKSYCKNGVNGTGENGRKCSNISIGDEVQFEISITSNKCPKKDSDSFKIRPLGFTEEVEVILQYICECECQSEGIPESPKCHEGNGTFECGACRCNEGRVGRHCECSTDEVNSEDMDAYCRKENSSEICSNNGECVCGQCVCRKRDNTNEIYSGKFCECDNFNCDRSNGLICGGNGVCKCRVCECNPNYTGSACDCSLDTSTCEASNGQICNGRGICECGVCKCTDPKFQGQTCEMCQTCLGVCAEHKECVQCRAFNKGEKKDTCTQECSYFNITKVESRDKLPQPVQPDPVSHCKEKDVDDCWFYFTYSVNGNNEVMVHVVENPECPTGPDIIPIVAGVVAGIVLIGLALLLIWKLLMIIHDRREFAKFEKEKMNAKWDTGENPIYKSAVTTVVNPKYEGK
# Sequence (P13612 whole entry, looked up): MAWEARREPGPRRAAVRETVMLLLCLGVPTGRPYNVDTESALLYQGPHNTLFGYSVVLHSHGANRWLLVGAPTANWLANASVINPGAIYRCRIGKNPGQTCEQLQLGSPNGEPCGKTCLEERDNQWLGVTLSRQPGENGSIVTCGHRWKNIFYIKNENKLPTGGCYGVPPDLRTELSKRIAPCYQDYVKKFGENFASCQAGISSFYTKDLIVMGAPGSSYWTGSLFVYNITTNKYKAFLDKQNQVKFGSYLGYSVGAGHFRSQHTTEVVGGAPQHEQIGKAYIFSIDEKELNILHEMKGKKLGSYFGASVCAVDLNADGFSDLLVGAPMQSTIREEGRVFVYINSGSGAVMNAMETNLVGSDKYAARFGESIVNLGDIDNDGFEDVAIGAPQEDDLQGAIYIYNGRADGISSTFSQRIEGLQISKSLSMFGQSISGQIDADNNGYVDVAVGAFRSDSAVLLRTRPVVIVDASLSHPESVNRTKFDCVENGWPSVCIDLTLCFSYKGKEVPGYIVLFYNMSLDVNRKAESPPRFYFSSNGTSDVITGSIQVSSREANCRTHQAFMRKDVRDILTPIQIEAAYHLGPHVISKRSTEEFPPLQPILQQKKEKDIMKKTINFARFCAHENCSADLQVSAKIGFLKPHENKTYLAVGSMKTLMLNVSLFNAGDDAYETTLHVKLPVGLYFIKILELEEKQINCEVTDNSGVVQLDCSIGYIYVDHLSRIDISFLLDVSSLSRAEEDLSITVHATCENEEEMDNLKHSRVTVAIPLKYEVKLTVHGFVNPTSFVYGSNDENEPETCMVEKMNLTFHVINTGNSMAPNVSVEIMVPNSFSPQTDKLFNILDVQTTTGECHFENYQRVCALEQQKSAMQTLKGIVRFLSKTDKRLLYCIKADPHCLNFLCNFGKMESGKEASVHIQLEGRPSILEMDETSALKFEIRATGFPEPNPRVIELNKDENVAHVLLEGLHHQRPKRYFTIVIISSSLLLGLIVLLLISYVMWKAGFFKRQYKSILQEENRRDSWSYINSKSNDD
# METHOD SUMMARY: inhibition of HUTS-21 binding to VLA-4, pilot screen, VLA-4 allosteric modulator project, U937 cells, HUTS-21 mAb, flow cytometry, validation set (AID 2674);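 note: antibody binding induced by the VLA-4 ligand LDV present at three times its Kd; 0% = LDV ligand with antibody and no compound and 100% = antibody without LDV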
# RUN CONDITIONS: HUTS-21 LIBS mAb binding, at 6.7 µM, stronger effect = higher value, binding induced by LDV ligand
Listing of entries alongside the reported inhibition.
Return type: number; implicit unit %.

Some entries whose results are on file:
CC(=O)c1c(N)nc2n(c1=O)CCCCC2; 14.7
Cc1nnc(SCC(=O)N2CCCC(C(=O)c3ccc(Cl)cc3)C2)o1 (centres undefined); 2.3
COc1ccc(CCN=C(N)C(C)c2ccccc2)cc1OC (centres undefined); 5.69
COC(=O)c1ccc(=O)n(Cc2ccco2)c1; -6.77

Exam item: For the compound COc1ccccc1C(=O)N=C1NC(=O)CC2C(=O)NCCN12 (centres undefined) , what inhibition is on record?
Marked response: 6.4

Exam item: Same question, COc1ccc(OC)c(-n2c(Cn3c(-c4ccccn4)nc4ccccc43)n[nH]c2=S)c1 this time
Marked response: 7.22

Exam item: Next entry: O=c1c2ccccc2nc2n1-c1ccccc1CCC2
Marked response: 13

Exam item: Let us now turn to Cc1cc(C)c2c(CCl)cc(=O)oc2c1
Marked response: 33.8

Exam item: And NC(=O)N1c2ccccc2C=Cc2ccccc21 ?
Marked response: 5.61

Exam item: For COc1cc(C2C(C(=O)c3ccc(C)o3)=C(O)C(=O)N2Cc2cccnc2)ccc1O (centres undefined) then?
Marked response: 2.58

Exam item: Another compound: Nc1c2c(nc3ccccc13)CCCC2
Marked response: 1.61

Exam item: What do you have for O=C(NNC(=O)c1cccs1)c1ccco1 ?
Marked response: -3.04

Exam item: Similarly, Cc1ncc(C(=O)O)c(C(=O)O)c1N ?
Marked response: 4.42
